Tested on: HL-60(TB) leukemia
measurement-protocol: NCI-60 one-dose screen, 48 h (100 = growth as untreated, 0 = no growth, -100 = all killed)
conditions-used: 10 µM unless noted
This is part of a sample that, as a whole, favours compounds with a hit. Of some 83,000 tested, about 20% had one in any assay.
outcome-measure: growth (%)
# number only, unit % dropped from output

The cases that follow already have their growth on record.
Ask: Provide the reported growth (system: HL-60(TB) leukemia) for c1ccc(OCCC[P+](c2ccccc2)(c2ccccc2)c2ccccc2)cc1
Reply: -57.3

Ask: Provide the reported growth (system: HL-60(TB) leukemia) for N#CC(C#N)=Cc1ccc2ccccc2c1
Reply: 96.4

Ask: Provide the reported growth (system: HL-60(TB) leukemia) for O=c1oc2ccc(F)cc2c(=O)n1-c1ccc(Br)cc1F
Reply: -45.3

Ask: Provide the reported growth (system: HL-60(TB) leukemia) for CCS(=O)(=O)OCCCl
Reply: 86.7

Ask: Provide the reported growth (system: HL-60(TB) leukemia) for C=CCn1c(SCC(=O)Nc2ccc(/C(C)=N/O)cc2)nnc1-c1cc(-c2ccc(S(N)(=O)=O)cc2)nc2ccccc12
Reply: 7.74

Ask: Provide the reported growth (system: HL-60(TB) leukemia) for CN1CCN(C(=O)COc2ccc(/C=C3\CC4C5CC=C6CC(Cl)CCC6(C)C5CCC4(C)C3=O)cc2)CC1 (stereo not given)
Reply: 38.3

Now let's try a different one.
Ask: Provide the reported growth (system: HL-60(TB) leukemia) for O=c1oc2c(C(F)(F)F)cccc2cc1-c1csc(Nc2ccc(OCCF)cc2)n1
Reply: -1.08

---

System: SW-620 colon
measurement-protocol: NCI-60 one-dose screen, 48 h (100 = growth as untreated, 0 = no growth, -100 = all killed)
conditions-used: 10 µM unless noted
About 83,000 compounds went through this panel and 20% of them were active in at least one assay; those are over-represented in the sample as a whole. Activity calls are given as the source filed them. Rule for the calls: active = growth percent below 10; inactive = the rest.
growth: recorded values

Ask: Give the reported growth for this compound. CCC[CH2][Sn]([CH2]CCC)([CH2]CCC)[O]C(=O)c1ccc(Cl)cc1Cl
Reply: -71.7% (active)

Ask: Give the reported growth for this compound. CC[C@@]1(C2O[C@@H](C3O[C@@](O)(CC)[C@H](C)C[C@@H]3C)C[C@@H]2C)CC[C@H]([C@]2(C)CCC3(C[C@H](O)[C@@H](C)[C@@H]([C@H](C)[C@@H](OC)[C@H](C)C(=O)O)O3)O2)O1 (stereo not given in full)
Reply: 11.3% (inactive)

Others:
Ask: Give the reported growth for this compound. C#CC1(O)CCC2(C)C(CCC3C4CCC(=O)C4(C)CCC32)C1 (stereo not given)
Reply: 103% (inactive)

Ask: Give the reported growth for this compound. C[As](=O)(O)c1ccc(C(=O)O)cc1
Reply: 105% (inactive)

Ask: Give the reported growth for this compound. C/C(=N/OC(=O)N(C)C)c1cc(Cl)ccc1Cl
Reply: 101% (inactive)

Ask: Give the reported growth for this compound. Clc1ccc(SSC(Cl)(Cl)Cl)cc1
Reply: 97.6% (inactive)

Ask: Give the reported growth for this compound. Nc1c(Br)cc2c3c(cccc13)-c1ccccc1-2
Reply: 90.4% (inactive)

Ask: Give the reported growth for this compound. CC1CC=CCC12C(=O)NC(=S)NC2=O (stereo not given)
Reply: 104% (inactive)

Ask: Give the reported growth for this compound. COc1cc(C2(C#N)CCN(C)CC2)cc(OC)c1OC
Reply: 97.3% (inactive)

Ask: Give the reported growth for this compound. ClCCN(CCCl)c1ccc(/C=C\c2ccnc3ccccc23)cc1
Reply: 77.2% (inactive)

---

System: HL-60(TB) leukemia
measurement-protocol: NCI-60 one-dose screen, 48 h
conditions-used: 10 µM unless noted
About 83,000 compounds went through this panel and 20% of them were active in at least one assay; those are over-represented in the sample as a whole. Activity calls are given as the source filed them. How the source made its calls: active means growth percent below 10; inactive means the rest.
Classes to choose from: True = active, False = inactive

Ask: // return assay outcome for COc1ccc(Oc2nc(Nc3ccc(N4CCOCC4)nc3)ncc2NC(=O)c2cc(OC)cc(OC)c2)cc1
Reply: False

Others:
Ask: // return assay outcome for CCN(CC)CCC(=O)Nc1cccc2c1C(=O)c1c(c(O)c3ccccc3c1O)C2=O
Reply: False

---

Test system: HL-60(TB) leukemia
measurement-protocol: NCI-60 one-dose screen, 48 h (100 = growth as untreated, 0 = no growth, -100 = all killed)
conditions-used: 10 µM unless noted
The panel holds about 83,000 compounds, 20% with a hit somewhere; the sample as a whole holds those more often.
growth: recorded values
# number only, unit % dropped from output

The cases that follow already have their growth on record.
Ask: Give the reported growth for this compound. O=CN1N=C(c2ccc(Cl)cc2)CC1c1cccc(Nc2ccnc3cc(C(F)(F)F)ccc23)c1 (stereo unspecified)
Reply: 31.6

Ask: Give the reported growth for this compound. Clc1ccc2c(NCCCCNc3nc(N4CCCCC4)nc4ccccc34)ccnc2c1
Reply: -69

Ask: Give the reported growth for this compound. Cc1ccc(N=NC2C(=O)N(c3ccc(Cl)cc3)N(c3ccc(Cl)cc3)C2=O)cc1
Reply: 103

Ask: Give the reported growth for this compound. Nc1cccc2c1CN(C1CCC(=O)NC1=O)C2=O (stereo unspecified)
Reply: 105

Ask: Give the reported growth for this compound. CN(N)c1nc2sc3c(c2c(=O)[nH]1)CCCC3
Reply: 102

Ask: Give the reported growth for this compound. CC(=O)C(=Cc1ccc(C=C(C(C)=O)C(C)=O)cc1)C(C)=O
Reply: 7.08

Ask: Give the reported growth for this compound. CC1CN(Cc2ccccc2)C(=O)NC1=O (stereo unspecified)
Reply: 88.7

Ask: Give the reported growth for this compound. Cc1cccc(-n2c(C)nc3ccc(N4CCCNC4=O)cc3c2=O)c1
Reply: 109

Now let's try a different one.
Ask: Give the reported growth for this compound. COc1ccc(C/C(C)=C(/c2ccc(OCCN(C)C)cc2)c2ccc(OC(=O)NCc3ccccc3)cc2)cc1
Reply: 45.1

---

growth: recorded values
System: MDA-MB-231 breast
measurement-protocol: NCI-60 one-dose screen, 48 h (100 = growth as untreated, 0 = no growth, -100 = all killed)
conditions-used: 10 µM unless noted
The panel holds about 83,000 compounds, 20% with a hit somewhere; the sample as a whole holds those more often.
# number only, unit % dropped from output

Ask: Give the reported growth for this compound. C1CN1c1nc(N2CC2)nc(N2CC2)n1
Reply: 87.8

Ask: Give the reported growth for this compound. COc1c(O)c2c3c(c1OC)-c1ccccc1CC3N(C)CC2 (stereo unspecified)
Reply: 96.3

Ask: Give the reported growth for this compound. Cc1ccc(C(=O)C2CN(C)CCC2(O)c2ccc(C)cc2)cc1 (stereo unspecified)
Reply: 116

Ask: Give the reported growth for this compound. Cc1cc(C)nc(C)c1.[Cl][Hg][Cl]
Reply: 118

Ask: Give the reported growth for this compound. CCC(C)/C=C(C)/C=C/C(=O)c1c(O)c(-c2ccc(O)cc2)c[nH]c1=O (stereo unspecified)
Reply: 70

Now let's try a different one.
Ask: Give the reported growth for this compound. O=S(=O)(Cl)c1ccccc1 (tested in a mixture with another compound)
Reply: 117

---

Test system: UACC-62 melanoma
measurement-protocol: NCI-60 one-dose screen, 48 h (100 = growth as untreated, 0 = no growth, -100 = all killed)
conditions-used: 10 µM unless noted
Description: Growth inhibition of the UACC-62 human tumor cell line is measured as a screen for anti-cancer activity. Cells are grown in 96 well plates and exposed to the test compound for 48 hours. Compounds are tested at a single concentration, which is 10^-5 M for most compounds. The reported endpoint is percent growth (GI% or GIPRCNT), where numbers from 0 - 100% represent growth inhibition, and numbers from -100% - 0 represent cell death. For example, a value of 40 represents 60% growth inhibition. […]
Compounds without any hit were thinned out: in the full panel of roughly 83,000, 20% have a hit.
outcome-measure: growth (%)
# number only, unit % dropped from output

The cases that follow already have their growth on record.
Ask: Give the reported growth for this compound. C=CCN1C(=O)C(CC)(CCC(C)C)C(=O)NC1=S (stereo not given)
Reply: 92.2

Ask: Give the reported growth for this compound. Oc1ccc2c3c1O[C@H]1c4[nH]c5ccccc5c4C[C@@]4(O)C(C2)N(CC2CC2)CC[C@]314
Reply: 102

Ask: Give the reported growth for this compound. CCOc1ccc(C(O)CN(C)Cc2ccccc2)cc1Cl (stereo not given)
Reply: 96.4

Ask: Give the reported growth for this compound. CC1(C)N=C(N)N=C(N)N1c1ccc(OCCCCNC(=O)Nc2cccc(S(=O)(=O)F)c2)c(Cl)c1
Reply: 22.8

Now let's try a different one.
Ask: Give the reported growth for this compound. O=C1NC2(CCNCC2)Nc2ccccc21
Reply: 96.1
